Listed below: self-cleavage values for each entry.
B1: LINE1-mini (parent)
chain: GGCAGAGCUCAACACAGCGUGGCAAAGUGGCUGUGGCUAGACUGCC

variants of: B1; assay: self-cleavage, relative activity (ratio to wild type); higher = more cleavage; in vitro, sequencing; the parent is a self-cleaving ribozyme
Form field (numeric): enter value without unit.

Previously resolved entries follow.
chain-sequence	self-cleavage
GGCAGAGCUCAACACAGGGCGGCAAAGUGGCUGUGGCUAGACUGCC [C18G U20C]	0.4
GGCAGAGCUCAACACAGCGUAGCUAAGUGGCUGUGGCUAGACUGCC [G21A A24U]	2.52
GGCCGAGCUCAACACAGCGUGGCAAAGUGGGUGUGGCUAGACUGCC [A4C C31G]	0.06

Query: Which self-cleavage reading was recorded for the variant GGCAGAGCUCAACACAGCGUGGCAAAGUGGCUGUGCCUCGACUGCC [G36C A39C] ?
Result: 0.05

Query: Moving on to the next variant: GGCAGAUCUCAACACAGCGUGGCUAAGUGGCUGUGGCUAGACUGCC [G7U A24U]
Result: 0.07

Query: Moving on to the next variant: GGCAGUGCUCAACACAGCGUGGUAAAGUGGCUGUGGCUAGACUGCC [A6U C23U]
Result: 0.89
